# Test system: SN12C renal
# assayRemarks: NCI tumour cell line growth inhibition, 48 h
endpointName: TGI

Challenge: Tell me its TGI given COc1ccccc1C12OC(=O)C1(C)Oc1ccccc1C2=O (centres undefined) as the entry.
Response given: > 100 µM

Challenge: Note TGI for the compound shown: COc1ccc(C(=O)Cn2c(C(=O)c3ccccc3)nc(-c3ccc(OC)cc3)c2-c2ccc(OC)cc2)cc1
Response given: > 100 µM

Challenge: Could you please provide reported TGI for COc1ccc(C(=O)C(C(=O)CCC(=O)Nc2ccc(C)c(C)c2)c2ccc(OC)cc2)cc1 (centres undefined) ? Thanks!
Response given: > 100 µM

Challenge: Please look at this compound and report its TGI: O=C1C(Cl)=C(Nc2cccc(Cl)c2)C(=O)N1Cc1ccc(Cl)cc1Cl
Response given: 12.8 µM

Challenge: Indicate its recorded TGI; the compound in question is CCCCC(=O)OCC(=O)[C@]1(O)Cc2c(O)c3c(c(O)c2[C@@H](OC2CC(NC(=O)C(F)(F)F)C(O)C(C)O2)C1)C(=O)c1c(OC)cccc1C3=O (some centres undefined)
Response given: 3.91 µM

Challenge: Give TGI for O=C(O)c1ccccc1[Se][Se]c1ccccc1C(=O)O
Response given: > 100 µM

Challenge: Give the reported value of TGI for this record: COc1cc2c(cc1OC)-c1c3cc(O)ccc3nn[n+]1CC2
Response given: > 100 µM

Challenge: Return TGI (reported value) for this compound: C=C(CN1CCN(c2ccc(Cl)cc2F)CC1)c1ccc(C(=O)Nc2ccccc2N)cc1
Response given: > 100 µM

Challenge: Dear colleague, please send me the reported TGI for COc1ccc2c(c1)/C(=C/c1c(C)nc3sc(C)nn13)C(=O)N2 when you can.
Response given: > 100 µM
